assay: The drug is tested on Streptococcus salivarius strain: DSM20560 for biotransformation under microaerobic condition. The drug concentrations were measured over 6 timepoints collected between 0 and 12 hours of incubation by liquid-chromatography-coupled mass spectrometry (LC–MS); format: ADME; set-up: dose 5 uM, timepoint 0, 1.5, 3, 6, 9, 12 hours; settings: 5 µM
measuredMetric: Bacterial Biotransformation

| compound | measValue |
| --- | --- |
| CO[C@H]1C[C@@H]2CC[C@@H](C)[C@@](O)(O2)C(=O)C(=O)N2CCCC[C@H]2C(=O)O[C@H]([C@H](C)C[C@@H]2CC[C@@H](OCCO)[C@H](OC)C2)CC(=O)[C@H](C)/C=C(\C)[C@@H](O)[C@@H](OC)C(=O)[C@H](C)C[C@H](C)/C=C/C=C/C=C/1C [EVEROLIMUS] | Compound NOT metabolized |
| CN(Cc1cnc2nc(N)nc(N)c2n1)c1ccc(C(=O)N[C@@H](CCC(=O)O)C(=O)O)cc1 [METHOTREXATE] | Compound NOT metabolized |
| C[C@]12C=CC(=O)C=C1CC[C@@H]1[C@@H]2C(=O)C[C@@]2(C)[C@H]1CC[C@]2(O)C(=O)CO [PREDNISONE] | Compound NOT metabolized |
